- Measured On: human ether-à-go-go-related gene (hERG) potassium channel (human, UniProt Q12809)
- Sequence (Q12809 whole entry, looked up): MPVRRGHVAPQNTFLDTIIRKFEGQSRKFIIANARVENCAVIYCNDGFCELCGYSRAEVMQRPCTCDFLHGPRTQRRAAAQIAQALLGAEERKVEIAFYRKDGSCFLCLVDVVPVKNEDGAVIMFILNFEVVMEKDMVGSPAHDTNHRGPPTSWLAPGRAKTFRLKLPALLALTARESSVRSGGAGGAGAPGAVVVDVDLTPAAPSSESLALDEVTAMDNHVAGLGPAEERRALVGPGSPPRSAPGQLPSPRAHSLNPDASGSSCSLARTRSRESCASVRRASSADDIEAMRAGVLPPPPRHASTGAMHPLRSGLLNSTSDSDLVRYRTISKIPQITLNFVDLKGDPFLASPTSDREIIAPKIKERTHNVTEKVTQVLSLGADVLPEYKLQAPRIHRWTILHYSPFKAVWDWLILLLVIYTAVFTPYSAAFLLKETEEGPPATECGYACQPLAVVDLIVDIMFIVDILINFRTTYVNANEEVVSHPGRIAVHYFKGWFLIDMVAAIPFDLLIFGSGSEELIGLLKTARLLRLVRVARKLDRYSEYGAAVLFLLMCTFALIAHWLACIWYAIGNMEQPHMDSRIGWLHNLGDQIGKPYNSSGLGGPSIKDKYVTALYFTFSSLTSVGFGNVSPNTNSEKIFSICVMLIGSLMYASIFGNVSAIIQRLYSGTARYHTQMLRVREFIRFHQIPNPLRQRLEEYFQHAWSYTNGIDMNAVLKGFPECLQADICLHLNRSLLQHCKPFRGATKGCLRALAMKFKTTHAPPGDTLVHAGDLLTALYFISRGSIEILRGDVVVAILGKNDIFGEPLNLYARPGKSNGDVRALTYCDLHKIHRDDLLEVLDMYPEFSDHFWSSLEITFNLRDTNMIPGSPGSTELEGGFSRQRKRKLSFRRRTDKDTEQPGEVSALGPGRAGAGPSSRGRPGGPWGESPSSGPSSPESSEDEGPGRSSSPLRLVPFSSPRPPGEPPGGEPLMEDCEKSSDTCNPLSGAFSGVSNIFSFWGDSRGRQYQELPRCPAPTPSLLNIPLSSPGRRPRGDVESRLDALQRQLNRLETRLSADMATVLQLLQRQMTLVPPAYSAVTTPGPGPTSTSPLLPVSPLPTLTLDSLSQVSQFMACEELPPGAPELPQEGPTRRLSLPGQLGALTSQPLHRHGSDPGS
- Protocol Details: primary screen, population patch clamp on CHO cells stably expressing hERG; higher = less effect of the substance;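 also: peak tail current of the secondary pulse compared with the same well before compound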
Among all 310,000 compounds or so, about 14,000 (4.5%) showed an effect of 50% or more. The effect is printed as a negative number. Only a selection was taken, and strong results are over-represented in it overall.
Mark Condition not met for hERG current change (%, negative = inhibition) at 10uM values under -30%, and Condition met for everything at or above.

INPUT: Would you say NC(=O)C1=C[C@@H](c2coc3ccccc3c2=O)C[C@@H](OCc2ccc(CO)cc2)O1 shows hERG current change (%, negative = inhibition) at 10uM at minimum -30%?
OUTPUT: Condition not met

INPUT: Would you say C=CCOC(=O)C1=C[C@H](c2coc3ccccc3c2=O)C[C@H](OCc2ccc(CO)cc2)O1 shows hERG current change (%, negative = inhibition) at 10uM at minimum -30%?
OUTPUT: Condition not met

INPUT: Would you say O=C(O)c1cccc(CSc2nnc(Cc3ccccc3)o2)c1 shows hERG current change (%, negative = inhibition) at 10uM at minimum -30%?
OUTPUT: Condition met

INPUT: Would you say CN(C)CCCNCCCNC(=O)/C(=N\O)c1ccccc1 shows hERG current change (%, negative = inhibition) at 10uM at minimum -30%?
OUTPUT: Condition met

INPUT: Would you say O=C(C1=C[C@H](c2coc3ccccc3c2=O)C[C@H](OCc2ccc(CO)cc2)O1)N1CCOCC1 shows hERG current change (%, negative = inhibition) at 10uM at minimum -30%?
OUTPUT: Condition not met

* * *

- Measured On: human ether-à-go-go-related gene (hERG) potassium channel (human, UniProt Q12809)
- Protocol Details: primary screen, population patch clamp on CHO cells stably expressing hERG; higher = less effect of the substance
About 14,000 (4.5%) of roughly 310,000 compounds showed an effect of 50% or more. Effects have a minus sign here. Only a selection was taken, and strong results are over-represented in it overall.
Kindly supply the reported hERG current change (%, negative = inhibition) at 10uM values for the records listed here.
Express it in %; write the number only.

INPUT: Which value of hERG current change (%, negative = inhibition) at 10uM has been reported for O=C(Nc1ccc(S(=O)(=O)NCc2ccco2)cc1)c1ccc(F)cc1 in the records?
OUTPUT: -4.23

INPUT: Which value of hERG current change (%, negative = inhibition) at 10uM has been reported for COc1ccccc1N(CC(=O)NC1CCCC1)C(=O)CCC(=O)Nc1ccccn1 in the records?
OUTPUT: 6.68

INPUT: Which value of hERG current change (%, negative = inhibition) at 10uM has been reported for Cc1ccc(C(=O)Oc2ccc(C(=S)N3CCOCC3)cc2)cc1 in the records?
OUTPUT: -7.84

INPUT: Which value of hERG current change (%, negative = inhibition) at 10uM has been reported for CS(=O)(=O)N(CC(=O)Nc1ccc(F)cc1)C1CCCCC1 in the records?
OUTPUT: 12.6

INPUT: Which value of hERG current change (%, negative = inhibition) at 10uM has been reported for CCOC(=O)N1CCN(C(=O)c2cc(COc3ccc(F)cc3F)on2)CC1 in the records?
OUTPUT: -17.1

INPUT: Which value of hERG current change (%, negative = inhibition) at 10uM has been reported for Cn1cccc1C(=O)NC(=O)COC(=O)c1ccccc1O in the records?
OUTPUT: -6.93

INPUT: Which value of hERG current change (%, negative = inhibition) at 10uM has been reported for CCCCSCCCNC(=S)Nc1ccccc1C in the records?
OUTPUT: 5.08

INPUT: Which value of hERG current change (%, negative = inhibition) at 10uM has been reported for Cc1cc(C)c2nc(-c3ccccn3)cc(C(=O)Nc3ccc(S(=O)(=O)Nc4onc(C)c4C)cc3)c2c1 in the records?
OUTPUT: -2.33

INPUT: Which value of hERG current change (%, negative = inhibition) at 10uM has been reported for Cc1cccc(C)c1OP(N)(=O)Oc1c(C)cccc1C in the records?
OUTPUT: 11

INPUT: Which value of hERG current change (%, negative = inhibition) at 10uM has been reported for CCC(=O)Nc1cccc(C(=O)/C=C/c2ccccc2)c1 in the records?
OUTPUT: -37

INPUT: Which value of hERG current change (%, negative = inhibition) at 10uM has been reported for COc1ccc(OC)c(S(=O)(=O)Nc2cccc(-c3ccc4nncn4n3)c2)c1 in the records?
OUTPUT: 18.7

INPUT: Which value of hERG current change (%, negative = inhibition) at 10uM has been reported for CN1CC(=O)N=C1N in the records?
OUTPUT: 8.56

INPUT: Which value of hERG current change (%, negative = inhibition) at 10uM has been reported for Cn1nccc1C(=O)Nc1ccn(C23CC4CC(CC(C4)C2)C3)n1 in the records?
OUTPUT: -11.6

INPUT: Which value of hERG current change (%, negative = inhibition) at 10uM has been reported for CCOc1ccc2nc(Cl)c(C3CC(c4ccco4)=NN3S(C)(=O)=O)cc2c1 (stereo not drawn) in the records?
OUTPUT: -41.1

INPUT: Which value of hERG current change (%, negative = inhibition) at 10uM has been reported for Cc1cc(-n2nc3ccccc3n2)c(O)c([N+](=O)[O-])c1 in the records?
OUTPUT: 6.11

INPUT: Which value of hERG current change (%, negative = inhibition) at 10uM has been reported for COCc1nc2ccccc2n1Cc1cccc(C)c1 in the records?
OUTPUT: -12.8

INPUT: Which value of hERG current change (%, negative = inhibition) at 10uM has been reported for COc1ccc(NC(=S)N2CCN(Cc3cccc(F)c3)CC2)c(OC)c1 in the records?
OUTPUT: -6.36

INPUT: Which value of hERG current change (%, negative = inhibition) at 10uM has been reported for CCC(=O)Nc1cccc(C(=O)/C=C/c2ccc(F)cc2)c1 in the records?
OUTPUT: -69.1

INPUT: Which value of hERG current change (%, negative = inhibition) at 10uM has been reported for O=C(Nc1cccc(OCC(=O)N2CCOCC2)c1)c1cccc([N+](=O)[O-])c1 in the records?
OUTPUT: 25.9

INPUT: Which value of hERG current change (%, negative = inhibition) at 10uM has been reported for Cc1ccccc1Cn1cc(/C=N/n2cnnc2)c2ccccc21 in the records?
OUTPUT: 14.8

INPUT: Which value of hERG current change (%, negative = inhibition) at 10uM has been reported for O=c1[nH]c2ccccc2n1CCCOc1ccccc1 in the records?
OUTPUT: 4.34

* * *

- Measured On: human ether-à-go-go-related gene (hERG) potassium channel (human, UniProt Q12809)
- Protocol Details: primary screen, population patch clamp on CHO cells stably expressing hERG; higher = less effect of the substance
Among all 310,000 compounds or so, about 14,000 (4.5%) showed an effect of 50% or more. The effect is printed as a negative number. The list comes from a sample in which strong results are over-represented; it also holds close analogues and randomly drawn compounds.
Mark false for hERG current change (%, negative = inhibition) at 10uM values under -30%, and true for everything at or above.

INPUT: Would you say COc1ccc(C(=O)Nc2ccc(C(=O)N3CCCC3)cc2)cc1[N+](=O)[O-] shows hERG current change (%, negative = inhibition) at 10uM at minimum -30%?
OUTPUT: false

INPUT: Would you say CCOc1ccc(C(=O)Nc2ccc(N3CCN(C)CC3)cc2)cc1 shows hERG current change (%, negative = inhibition) at 10uM at minimum -30%?
OUTPUT: false

INPUT: Would you say O=C(c1ccc(OC2CCN(CCO)CC2)cc1)N1CCCC1 shows hERG current change (%, negative = inhibition) at 10uM at minimum -30%?
OUTPUT: true

INPUT: Would you say COCC(=O)N1CCC(Oc2ccc(C(=O)N3CCCCCCC3)cc2)CC1 shows hERG current change (%, negative = inhibition) at 10uM at minimum -30%?
OUTPUT: true

INPUT: Would you say CC(C)/C=C/CN1CCC(Oc2ccc(C(=O)N3CCCC3)cc2)CC1 shows hERG current change (%, negative = inhibition) at 10uM at minimum -30%?
OUTPUT: false

INPUT: Would you say COCC(=O)N1CCC(Oc2ccc(C(=O)N3CCCCCC3)cc2)CC1 shows hERG current change (%, negative = inhibition) at 10uM at minimum -30%?
OUTPUT: true

INPUT: Would you say COc1ccc(C(=O)Nc2ccc(N3CCN(C(=O)c4ccccc4)CC3)cc2)cc1[N+](=O)[O-] shows hERG current change (%, negative = inhibition) at 10uM at minimum -30%?
OUTPUT: false

INPUT: Would you say CCOc1ccc(C(=O)Nc2ccc(N3CCN(C)CC3)cc2)cc1[N+](=O)[O-] shows hERG current change (%, negative = inhibition) at 10uM at minimum -30%?
OUTPUT: false

INPUT: Would you say COc1ccccc1/C=C/CN1CCC(Oc2ccc(C(=O)N3CCCCC3)cc2)CC1 shows hERG current change (%, negative = inhibition) at 10uM at minimum -30%?
OUTPUT: false
